- Tested Target: UniProt:Q16739
- Sequence (Q16739 1-394): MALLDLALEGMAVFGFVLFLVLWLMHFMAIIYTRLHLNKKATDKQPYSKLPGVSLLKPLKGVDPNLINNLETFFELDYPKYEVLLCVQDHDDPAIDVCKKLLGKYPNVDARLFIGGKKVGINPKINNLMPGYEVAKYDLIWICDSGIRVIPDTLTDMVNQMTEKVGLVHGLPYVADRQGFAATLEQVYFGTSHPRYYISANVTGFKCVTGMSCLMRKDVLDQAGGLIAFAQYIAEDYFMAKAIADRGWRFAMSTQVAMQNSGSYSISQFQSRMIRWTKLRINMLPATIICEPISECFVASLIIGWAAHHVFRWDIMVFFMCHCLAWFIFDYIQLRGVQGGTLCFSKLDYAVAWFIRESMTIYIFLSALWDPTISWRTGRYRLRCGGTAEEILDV
- Assay Remarks: Cell-based IC50 for GCS inhibition by measuring glucosylceramide (GlcCer) depletion in MCF-7 cells
- Run Conditions: MCF-7 cells cultured 5-7 days; GlcCer depletion by HPTLC; read-out: Inhibition of GCS Cellular-based (IC50 μM)
Assay Endpoint: IC50 (µM)
The reply should be a number in µM, with the unit left off.

For C[C@@H](NC(=O)c1ccc(CN2C[C@H](O)[C@@H](O)[C@@H](O)[C@@H]2CO)cc1)c1ccccc1 the compound record lists IC50 as 1

###

- Tested Target: non-lysosomal-β-glucocerebrosidase (Homo sapiens)
- Construct: endogenous in cells; host or cells: MCF7 whole cell extracts
- Sequence (Q9HCG7 whole entry): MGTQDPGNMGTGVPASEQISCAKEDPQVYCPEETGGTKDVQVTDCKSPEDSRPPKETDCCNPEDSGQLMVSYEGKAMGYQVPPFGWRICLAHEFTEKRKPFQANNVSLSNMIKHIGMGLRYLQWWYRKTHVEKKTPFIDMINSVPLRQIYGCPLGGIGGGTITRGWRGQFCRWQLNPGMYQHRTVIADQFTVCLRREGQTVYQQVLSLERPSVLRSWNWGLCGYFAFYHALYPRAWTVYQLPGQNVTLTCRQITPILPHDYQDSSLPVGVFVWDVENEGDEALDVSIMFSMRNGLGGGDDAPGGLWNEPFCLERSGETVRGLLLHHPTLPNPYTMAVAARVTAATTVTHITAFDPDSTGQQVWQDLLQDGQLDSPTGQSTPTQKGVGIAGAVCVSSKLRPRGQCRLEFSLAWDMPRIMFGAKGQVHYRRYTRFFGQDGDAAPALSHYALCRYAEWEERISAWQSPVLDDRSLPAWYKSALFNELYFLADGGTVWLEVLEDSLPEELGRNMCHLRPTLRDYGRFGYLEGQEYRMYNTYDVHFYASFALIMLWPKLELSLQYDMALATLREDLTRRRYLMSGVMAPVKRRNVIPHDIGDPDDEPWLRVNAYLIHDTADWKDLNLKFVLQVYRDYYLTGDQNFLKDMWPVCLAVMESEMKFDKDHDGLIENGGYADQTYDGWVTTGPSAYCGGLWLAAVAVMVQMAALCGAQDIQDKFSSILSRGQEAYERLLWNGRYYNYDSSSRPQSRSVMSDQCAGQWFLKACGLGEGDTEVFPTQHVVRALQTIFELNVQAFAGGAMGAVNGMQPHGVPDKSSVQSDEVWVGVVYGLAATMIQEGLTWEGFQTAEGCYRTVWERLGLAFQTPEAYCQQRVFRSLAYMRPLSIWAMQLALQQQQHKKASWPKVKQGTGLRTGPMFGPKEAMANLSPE
- Assay Remarks: Inhibition of non-lysosomal-β-glucocerebrosidase (whole cell extracts of MCF7)
- Assay type: biochemical
Assay Endpoint: pIC50
Convention used: pIC50 is expressed as -log10 of the molar concentration.

Tested on non-lysosomal-β-glucocerebrosidase (Homo sapiens): C[C@H](NC(=O)c1ccc(CN2C[C@H](O)[C@@H](O)[C@@H](O)[C@@H]2CO)cc1)c1ccccc1 . Observed pIC50: 4.83

Param item: OC[C@H]1[C@H](O)[C@H](O)[C@@H](O)CN1Cc1ccc(OCc2ccccc2)cc1 ; param system: non-lysosomal-β-glucocerebrosidase (Homo sapiens); output pIC50: 5.03

###

- Tested Target: human GCS (Homo sapiens, UniProt Q16739)
- Sequence (Q16739 1-394): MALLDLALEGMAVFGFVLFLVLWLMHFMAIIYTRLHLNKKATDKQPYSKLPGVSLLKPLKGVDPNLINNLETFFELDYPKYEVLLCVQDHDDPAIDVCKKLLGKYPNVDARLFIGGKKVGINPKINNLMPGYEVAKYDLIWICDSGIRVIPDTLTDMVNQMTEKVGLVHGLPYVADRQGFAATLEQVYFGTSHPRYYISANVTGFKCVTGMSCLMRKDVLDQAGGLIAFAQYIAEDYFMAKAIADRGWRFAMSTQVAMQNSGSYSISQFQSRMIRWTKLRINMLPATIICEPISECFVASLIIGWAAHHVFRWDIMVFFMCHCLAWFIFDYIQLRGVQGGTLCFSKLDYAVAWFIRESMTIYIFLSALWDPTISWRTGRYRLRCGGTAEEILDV
- Assay Remarks: Inhibition of GCS (human recombinant GCS expressed in insect cells)
- Format: biochemical
- Set-up: made in house; host or cells: insect cells
Provide the recorded IC50 for the entries that follow.
Answer format: numeric, µM implied, no suffix.

Record CCCN(CCC)c1ccc(CN2C[C@H](O)[C@@H](O)[C@@H](O)[C@@H]2CO)cc1C#N [Example 4] , field IC50: 0.62

// field: IC50; key: C[C@@H](NC(=O)c1ccc(CN2C[C@H](O)[C@@H](O)[C@@H](O)[C@@H]2CO)cc1)c1ccc(F)cc1 [Example 7] ; value = 4.7

C[C@H](NC(=O)c1ccc(CN2C[C@H](O)[C@@H](O)[C@@H](O)[C@@H]2CO)cc1)c1ccccc1 [Example 3] has a reported IC50 of 7.2

Documented IC50 of OC[C@H]1[C@H](O)[C@H](O)[C@@H](O)CN1Cc1ccc(OCc2ccccc2)cc1 [Example 2] : 0.66

The recorded IC50 for entry O=C(NCc1ccc(F)cc1)c1ccc(CN2C[C@H](O)[C@@H](O)[C@@H](O)[C@@H]2CO)cc1 [Example 1] equals 2.2
